Reported TGI values for a set of compounds
test system: SNB-78 CNS; assay: NCI tumour cell line growth inhibition, 48 h

# example entries with known answers
COC(=O)C1Cc2c([nH]c3ccccc23)C=N1 (stereo not drawn)
> 100 µM
CCCCOC(=O)N[C@H]1CCc2cc(OC)c(OC)c(OC)c2-c2ccc(SC)c(=O)cc21
> 4.64 µM

Q. # lookup: TGI of `CC(=O)OCCOCNC(=S)N/N=C(\C)c1ccco1`
A. > 100 µM

###

Reported TGI values for a set of molecules
test system: EKVX NSCLC; assay: NCI tumour cell line growth inhibition, 48 h
Output spec: scalar in µM, unitless text.

Cc1ccccc1NC(=O)NC(CC(N)=O)c1ccc2c(c1)nc(-c1cccc(Oc3ccc(C(C)(C)C)cc3)c1)n2CCCN1CCCCC1C (centres undefined)
11.5
COc1ccc2c(c1)CC[C@@H]1C2CC[C@]2(C)OC(=O)CCC12 (some centres undefined)
21.3
COC(=O)c1oc2c(C(=O)/C=C/c3ccc(OC)cc3)c(OCCCN3CCCCC3)ccc2c1C
7.18

Q. # lookup: TGI of `N#C/C(=C/N1CCN(C(=O)c2ccco2)C1=S)C(N)=O`
A. 0.982

###

tested on: ACHN renal; experiment: NCI tumour cell line growth inhibition, 48 h
REPORTED_METRIC: TGI

# example entries with known answers
O=C(O)/C(Cl)=C(/Cl)C(=O)Nc1cccc(Cl)c1
36.8 µM
NC12c3c4cccc3Oc3cccc(c31)Oc1cccc(c12)O4
> 50 µM
Cn1cccc1-c1cc(-c2ccc(Br)cc2)nc(N)c1C#N
> 100 µM

Q. # lookup: TGI of `COc1ccccc1NC(=O)C1=C(C)NC(C)=C(C(=O)Nc2ccccc2OC)C1c1ccc(C(C)C)cc1`
A. > 100 µM

Q. # lookup: TGI of `COCOc1cc(OC)ccc1C=O`
A. > 100 µM

###

Reported TGI values for a set of compounds
test system: OVCAR-5 ovarian; experiment: NCI tumour cell line growth inhibition, 48 h

COc1ccccc1NC(=O)C1=C(C)NC(C)=C(C(=O)Nc2ccccc2OC)C1c1ccc(C(C)C)cc1
> 100 µM
CCC(=O)O[C@@H]1C2C(OC(C)=O)C34COC(C)([C@@H]3C3C(C[C@]3(C)OC(C)=O)[C@@H](OC(=O)c3ccccc3)C4=O)[C@H](OC(C)=O)[C@@]2(OC(C)=O)C[C@@H]1C (some centres undefined)
> 100 µM
CC(C)[C@]12O[C@H]1[C@@H]1O[C@]13[C@]1(O[C@H]1C[C@H]1c4c(C(=O)c5ccccc5)oc(OC(=O)c5ccccc5)c4CC[C@@]13C)[C@@H]2O
> 100 µM

Could you now consider this next compound?
Q. # lookup: TGI of `COc1ccc2c(c1)CCC(CN1CCN(CCOC(c3ccc(F)cc3)c3ccc(F)cc3)CC1)=C2`
A. 97.4 µM

###

system: SN12C renal; experiment: NCI tumour cell line growth inhibition, 48 h
REPORTED_METRIC: log10 TGI (log10 of the value in µM)
Please keep in mind that the values are log10 of TGI expressed in µM.

# example entries with known answers
COc1ccc2c(c1)CC[C@@H]1C2CC[C@]2(C)OC(=O)CCC12 (some centres undefined)
1.46
CCN(CCCl)CCNc1c2ccccc2nc2ccc(OC)cc12
0.45
O=C1c2cccnc2-c2nc(-c3ccc([N+](=O)[O-])cc3)cc3c2c1nc1ccccc13
1.41
C=C1C(=O)O[C@H]2C1C[C@@H](O)[C@@]1(C)OC1CC[C@@]1(C)O[C@H]21 (some centres undefined)
1.63
C[Si](C)(C)C#C[I+]c1ccccc1
1.81
COc1ccc(N(C(=O)OC(C)(C)C)[C@@H]2C(C)=C[C@H]([S@@](=O)c3ccc(C)cc3)[C@@H]3C(=O)N(C)C(=O)[C@@H]32)cc1
1.51
COc1ccc(N=NN2CCCC2)cc1
1.74
CCCCCCCCSC1=CC(=O)C(OC)=C(OC)C1=O
1.26

Q. # lookup: log10 TGI of `COc1cc2c(/C=C3\C(=O)Nc4ccc(Br)cc43)c(Cl)n(C)c2cc1C`
A. 1.06

Q. # lookup: log10 TGI of `NS(=O)(=O)c1ccc(CNC(=S)NC(=O)Nc2ccc(Cl)c(Cl)c2)cc1`
A. 1.52
